Below is a list of entries, each paired with its recorded pKd value.
Molecular target: T1, EsCas13d, nuclease-dead (Eubacterium siraeum, UniProt B0MS50, R295A;H300A;R849A;H854A)
T1 sequence: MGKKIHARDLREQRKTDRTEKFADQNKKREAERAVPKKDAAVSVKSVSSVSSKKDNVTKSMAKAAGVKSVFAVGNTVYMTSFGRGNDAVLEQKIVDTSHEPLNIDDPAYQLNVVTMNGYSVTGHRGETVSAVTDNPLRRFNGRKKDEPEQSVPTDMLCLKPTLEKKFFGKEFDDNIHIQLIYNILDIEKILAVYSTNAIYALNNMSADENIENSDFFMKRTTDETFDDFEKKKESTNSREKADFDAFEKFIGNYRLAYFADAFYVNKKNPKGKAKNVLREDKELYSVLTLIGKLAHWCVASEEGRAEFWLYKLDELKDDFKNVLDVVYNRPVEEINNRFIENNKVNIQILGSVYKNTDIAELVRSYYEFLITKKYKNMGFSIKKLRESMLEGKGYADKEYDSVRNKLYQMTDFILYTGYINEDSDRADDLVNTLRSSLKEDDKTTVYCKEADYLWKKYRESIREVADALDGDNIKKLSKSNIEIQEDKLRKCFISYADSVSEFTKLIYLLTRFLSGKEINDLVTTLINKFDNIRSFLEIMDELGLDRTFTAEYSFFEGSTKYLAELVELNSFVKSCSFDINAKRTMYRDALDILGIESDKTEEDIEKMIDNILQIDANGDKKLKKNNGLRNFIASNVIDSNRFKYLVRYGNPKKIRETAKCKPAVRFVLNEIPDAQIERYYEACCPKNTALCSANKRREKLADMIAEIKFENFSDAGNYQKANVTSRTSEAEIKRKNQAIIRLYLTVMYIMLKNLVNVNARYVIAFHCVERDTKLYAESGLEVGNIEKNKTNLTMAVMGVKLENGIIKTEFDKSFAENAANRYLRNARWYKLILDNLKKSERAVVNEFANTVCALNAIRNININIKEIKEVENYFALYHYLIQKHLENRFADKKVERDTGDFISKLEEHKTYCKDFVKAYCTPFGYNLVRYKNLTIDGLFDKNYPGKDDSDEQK
Experiment: crRNA (strand 1, pre-loaded); Mg2+; 40 mM Tris-HCl pH 7.5, 150 mM NaCl, 6 mM MgCl2, 1 mM DTT, 0.1% Tween-20, 0.2 mg/ml BSA; 25 C; 10 min per concentration, then washed
Conditions: tags: His6-TwinStrep-SUMO cleaved; N-terminal SNAP kept (SNAP-Surface 488); label: 3' end held by stalled T7 RNA polymerase
Quick note: pKd means taking -log10 of the concentration in moles per liter.

pKd for target 2 MT 5'PFS GCA 3'PFS AUU (mixed) RNA 1: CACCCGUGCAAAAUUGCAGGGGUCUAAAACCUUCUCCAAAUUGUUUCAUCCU RNA 2: GGGAAUGGAUCCACAUCUACGAAUUCGCAAGGAUGAAACAAUUUGGAGAAGAUUAGAUCGGAAGAGCACACGU ?
7.99

pKd for target 1 insA 3' of 19 (mixed) RNA 1: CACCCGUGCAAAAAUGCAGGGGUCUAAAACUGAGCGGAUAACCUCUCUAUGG RNA 2: GGGAAUGGAUCCACAUCUACGAAUUCGUACCAUAAGAGAGGUUAUCCGCUCACCGAGAUCGGAAGAGCACACGU ?
7.80

pKd for target 1 insU 3' of 12 (mixed) RNA 1: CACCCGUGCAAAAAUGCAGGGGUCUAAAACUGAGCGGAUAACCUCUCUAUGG RNA 2: GGGAAUGGAUCCACAUCUACGAAUUCGUACCAUAGAGAGGUUUAUCCGCUCACCGAGAUCGGAAGAGCACACGU ?
8.12

pKd for target 1 insU 3' of 17,insA 3' of 13 (mixed) RNA 1: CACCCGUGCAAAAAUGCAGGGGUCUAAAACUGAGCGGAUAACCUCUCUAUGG RNA 2: GGGAAUGGAUCCACAUCUACGAAUUCGUACCAUAGUAGAGAGUUAUCCGCUCACCGAGAUCGGAAGAGCACACGU ?
7.88

pKd for target 2 MT 5'PFS AUG 3'PFS CGA (mixed) RNA 1: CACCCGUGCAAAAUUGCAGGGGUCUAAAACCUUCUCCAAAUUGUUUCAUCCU RNA 2: GGGAAUGGAUCCACAUCUACGAAUUCAUGAGGAUGAAACAAUUUGGAGAAGCGAAGAUCGGAAGAGCACACGU ?
8.03
